# target_under_test: NF-κB p65 (Homo sapiens, UniProt Q04206)
# Sequence (Q04206 whole entry): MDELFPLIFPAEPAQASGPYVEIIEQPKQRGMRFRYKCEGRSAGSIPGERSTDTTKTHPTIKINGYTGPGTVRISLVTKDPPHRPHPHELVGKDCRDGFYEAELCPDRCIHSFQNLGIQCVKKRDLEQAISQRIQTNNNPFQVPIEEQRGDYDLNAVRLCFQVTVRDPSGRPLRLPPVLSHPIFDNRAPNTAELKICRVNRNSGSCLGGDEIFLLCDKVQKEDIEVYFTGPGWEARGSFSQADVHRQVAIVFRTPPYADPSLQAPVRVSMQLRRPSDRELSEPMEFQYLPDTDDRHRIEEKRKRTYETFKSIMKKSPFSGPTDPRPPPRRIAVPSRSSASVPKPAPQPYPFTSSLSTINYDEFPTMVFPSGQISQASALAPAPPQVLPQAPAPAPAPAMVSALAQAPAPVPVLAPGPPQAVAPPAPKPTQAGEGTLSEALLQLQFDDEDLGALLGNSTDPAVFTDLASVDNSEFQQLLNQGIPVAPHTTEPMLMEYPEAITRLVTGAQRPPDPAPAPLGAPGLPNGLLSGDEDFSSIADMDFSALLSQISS
# Sequence (P19838 1-433 partner limits assumed): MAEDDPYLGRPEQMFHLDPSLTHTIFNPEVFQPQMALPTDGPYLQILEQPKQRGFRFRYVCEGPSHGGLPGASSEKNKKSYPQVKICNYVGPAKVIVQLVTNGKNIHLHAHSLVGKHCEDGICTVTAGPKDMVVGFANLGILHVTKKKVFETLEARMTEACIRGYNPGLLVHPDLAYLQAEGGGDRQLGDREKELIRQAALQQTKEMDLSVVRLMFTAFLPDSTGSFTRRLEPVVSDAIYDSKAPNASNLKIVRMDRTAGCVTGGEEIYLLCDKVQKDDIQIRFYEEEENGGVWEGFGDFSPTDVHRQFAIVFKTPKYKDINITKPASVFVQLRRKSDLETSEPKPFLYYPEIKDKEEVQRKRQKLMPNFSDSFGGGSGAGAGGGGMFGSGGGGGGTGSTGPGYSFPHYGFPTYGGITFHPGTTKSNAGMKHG
# protocol_details: Enzyme-based ELISA NF-κB p65 assay
# Format: biochemical
observed_property: IC50

Solved entries:
Return reported IC50; argument: `C=C(C)[C@H]1Cc2c(oc3cc(O)c(CC=C(C)C)c(O)c3c2=O)C2=C1C(=O)C(O)=C(CC=C(C)C)C2=O`
> 10 µM

Return reported IC50; argument: CC(C)=CCc1c(O)c(CC=C(C)C)c2oc3c(c(=O)c2c1O)C(C=C(C)C)Oc1cc(O)c(O)cc1-3 (stereo not drawn)
> 10 µM

Return reported IC50; argument: `C=C(C)[C@H]1Cc2c(oc3c(CC=C(C)C)c(O)c(CC=C(C)C)c(O)c3c2=O)-c2c(O)cc(O)c(O)c21`
> 10 µM

Return reported IC50; argument: `C=C(C)[C@H]1Cc2c(oc3c4c(cc(O)c3c2=O)OC(C)(C)C=C4)-c2c(O)cc(O)c(O)c21`
2.3 µM

Return reported IC50; argument: CC1(C)C=Cc2c(cc(O)c3c(=O)c4c(oc23)-c2c(O)cc(O)c3c2C(C4)C(C)(C)O3)O1 (stereo not drawn)
> 10 µM

Further cases:
Return reported IC50; argument: `CC1(C)C=Cc2cc3c(cc2O1)Oc1cc(O)ccc1C(O)=C3`
> 10 µM

====

# target_under_test: UniProt P19838
# Sequence (P19838 1-433 limits assumed): as the sequence (P19838 1-433 partner limits assumed) above
# protocol_details: Enzyme-based ELISA NF-κB p50 assay
# Assay type: biochemical
observed_property: IC50

Solved entries:
Return reported IC50; argument: CC1(C)C=Cc2cc3c(cc2O1)Oc1cc(O)ccc1C(O)=C3 [Compound 5]
> 10 µM

Return reported IC50; argument: C=C(C)[C@H]1Cc2c(oc3c4c(cc(O)c3c2=O)OC(C)(C)C=C4)-c2c(O)cc(O)c(O)c21 [Compound 7, artobiloxanthone]
3.7 µM

Further cases:
Return reported IC50; argument: C=C(C)[C@H]1Cc2c(oc3cc(O)c(CC=C(C)C)c(O)c3c2=O)C2=C1C(=O)C(O)=C(CC=C(C)C)C2=O [Compound 6, artonin O]
> 10 µM

Return reported IC50; argument: C=C(C)[C@H]1Cc2c(oc3c(CC=C(C)C)c(O)c(CC=C(C)C)c(O)c3c2=O)-c2c(O)cc(O)c(O)c21 [Compound 1]
2 µM

Return reported IC50; argument: CC(C)=CCc1c(O)c(CC=C(C)C)c2oc3c(c(=O)c2c1O)C(C=C(C)C)Oc1cc(O)c(O)cc1-3 (stereo not drawn) [Compound 4]
> 10 µM

Return reported IC50; argument: CC1(C)C=Cc2c(cc(O)c3c(=O)c4c(oc23)-c2c(O)cc(O)c3c2C(C4)C(C)(C)O3)O1 (stereo not drawn) [Compound 8, cycloartobiloxanthone]
> 10 µM
